Kindly supply the reported protein stability index values for the records listed here.
B1: ZNF449 (parent)
chain: TLHQRTHTEERPFKCNYCGKSFRQ

# Variants of: B1
# assay.comment: protein stability index of a GFP-peptide fusion (GPS, HEK-293T) (PSI 1-6); higher = more stable;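 further: lentivirally expressed fusions sorted by FACS into six bins by GFP to DsRed ratio, PSI derived from sequencing read proportions per bin multiplied by bin number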
# stated.conditions: c terminus: a fixed tail appended
Numbers only.

mutant.id	protein stability index
Q24C	1.84
T1D	2.46
K20P	2.31
K14I	2.27
T6R	2.28
R11A	2.39
P12R	2.21
S21M	2.19

Please supply protein stability index for each of the following items, keeping them in order.
1. G19S
2. R5C
3. R5D
4. H3Q
5. T6Y

Given back:
[2.06, 4.17, 2.91, 2.83, 2.25]

Please supply protein stability index for each of the following items, keeping them in order.
1. Q24P
2. C18S
3. K20Q
4. S21Q
5. H3R
6. T6M
7. H3K
8. E10V

Given back:
2.87
3.17
1.82
2.27
2.82
2.03
2.89
3.31

Please supply protein stability index for each of the following items, keeping them in order.
1. R23N
2. C15H
3. H7W
4. P12N

Given back:
[2.35, 3.4, 2.88, 2.41]

Please supply protein stability index for each of the following items, keeping them in order.
1. K20T
2. E10M

Given back:
2.58
2.73

Please supply protein stability index for each of the following items, keeping them in order.
1. T6G
2. T8I

Given back:
[1.85, 2.56]

Please supply protein stability index for each of the following items, keeping them in order.
1. C15L
2. S21V

Given back:
1: 1.4; 2: 2.29

Please supply protein stability index for each of the following items, keeping them in order.
1. N16G
2. F13T

Given back:
1.95
3.78

Please supply protein stability index for each of the following items, keeping them in order.
1. K20C
2. T8Y

Given back:
1. 1.86
2. 2.54
